# Tested on: HT-29
# test_protocol: NCI tumour cell line growth inhibition, 48 h
The source made the active and inactive calls. No stated cut-off is given here; in the data, active = GI50 up to about 1.1 µM and inactive = higher.
Classes used: active, inactive

| compound | class_label |
| --- | --- |
| CCc1cccc(C(C)C)c1N1C(=O)C(=O)C(c2nc3ccccc3s2)C(=O)C1=O | inactive |
| COc1ccc(/C=N/NC(=O)NCCNCCO)cc1 | inactive |
| Cc1occc1/C(S)=N\c1ccc(Cl)c(C(=O)OCC(F)(F)F)c1 | inactive |
| CC1=NN(C(=O)c2ccncc2)C(=O)C1/N=N/c1ccc(F)cc1 (configuration not stated) | inactive |
| C/N=C(/NC)N(C)c1nc(=[N+](C)C)ss1.[O-][Cl+3]([O-])([O-])[O-] | inactive |
| C/C(=N\NC(=N)N)C(CN1CCOCC1)C(c1ccccc1)c1c(O)c2ccccc2oc1=O (configuration not stated) | inactive |
| CC(C)C1CC(CO)(CNc2cc(Cl)nc(N)n2)C1 (configuration not stated) | inactive |
| Cc1cn(CC2=NCC(C)N2)c(=O)[nH]c1=O (configuration not stated) | inactive |
| COCn1c(C)c(C)c2c(=O)oc(N(C)C)nc21 | inactive |
| C/C(=C\CBr)CCC(Br)C(C)(C)Br (configuration not stated) | inactive |
| S=C1NC(c2ccccc2)=NC(Cc2ccccc2)(c2ccccc2)N1c1ccccc1 (configuration not stated) | inactive |
| Cc1nc2nnc(C)n2c2c1C(=O)Nc1ccccc1N2 | inactive |
| Cc1nc(O)nc(CC(O)(c2ccccc2)c2ccccc2)c1-c1ccccc1 | inactive |
| CN1B(c2ccccc2)N(C)C(=O)N(C)C1=O | inactive |
| O=c1ccs[nH]1 | inactive |
| Cc1ccc(NCCO)cc1 | inactive |
| CC1Cc2c(cc(N)nc2Br)NC1=O (configuration not stated) | inactive |
| C[C@@H]1CCC2[C@@H](C)[C@@H](OCCO[C@H]3OC4O[C@@]5(C)CCC6[C@H](C)CCC([C@H]3C)[C@@]46OO5)OC3O[C@@]4(C)CCC1[C@]32OO4 (some centres not stated) | active |
| CCOC(=O)c1cc(OC(=O)CC)c2c(OC)ccc(OC)c2c1 | inactive |
| CC/C(=N/O)C(C)C(=O)CCC(=O)Nc1ccc(Cl)cc1 (configuration not stated) | inactive |
| Cc1cc2ccc(OC(=O)c3ccc(NC(=N)N)cc3)cc2oc1=O | inactive |
| C[C@H](CCCOS(C)(=O)=O)[C@H]1CC[C@H]2[C@@H]3CC[C@@H]4C[C@H](OS(C)(=O)=O)CC[C@]4(C)[C@H]3CC[C@]12C | inactive |
| Cc1cc(N(CCC#N)CCC#N)ccc1/C=C1N=C(/C=C\c2ccccc2)OC\1=O | inactive |
| CCOC(=O)NC(C(F)(F)F)(C(F)(F)F)P(=O)(OCC(C)C)OCC(C)C | inactive |
| COc1ccc(CN2C(=O)C(=O)N(C)C2=O)c2ccccc12 | inactive |
| c1cnc2c(c1)Nc1cnncc1S2 | inactive |
| CCCCCCCCCCCCCP(=O)(O)NCC(N)=O | inactive |
| CC(=O)O/C=C\OC1CCCC1 | inactive |
| O=C(Cc1nc2ccc([N+](=O)[O-])cc2nc1O)C(=O)Nc1cc(Cl)c(Cl)cc1Cl | inactive |
| Nc1cc(C2CCCc3c2[nH]c2ccccc32)ccc1O (configuration not stated) | inactive |
| Cc1cc(C)nc(NS(=O)(=O)c2ccc(NN=c3c4ccccc4n(C)c4ccccc34)cc2)n1 | inactive |
| O=C1C=C(C2OC(CO)C(O)C2O)C(=O)N1 (configuration not stated) | inactive |
| O=C(NNC(=O)c1ccccc1S)c1ccccc1S [BIS(THIOSALICYL)HYDRAZIDE] | inactive |
| OCCN(CCO)c1ncnc2c1sc(=S)n2-c1ccccc1 | inactive |
| COc1ccc(C(NS(=O)(=O)c2ccc(C)cc2)c2c(C(CBr)OC)c3ccccc3n2S(=O)(=O)c2ccccc2)cc1OC (configuration not stated) | inactive |
| CC1=C(O)C(=O)c2ccccc2C1=O | inactive |
| CC(=O)O/C(=C1\C[C@H]2[C@@H]3CC=C4C[C@@H](OC(C)=O)CC[C@]4(C)[C@H]3CC[C@]2(C)C1=O)C(F)(F)F | inactive |
| CCC1(N=[N+]=[N-])C(=O)Nc2cc(C)ccc2C1=O (configuration not stated) | inactive |
| COc1ccc(N2C(=O)C3c4[nH]c5ccc(OC)cc5c4C4CCC(C(C)C)CC4C3C2=O)cc1 (configuration not stated) | inactive |
| C=C(C)C(=O)OC1CCC2(C)C(CCC3C2CCC2(C)C(c4ccc(=O)oc4)CC4OC432)C1 (configuration not stated) | inactive |
| Cc1ccc(S(=O)(=O)NC(=O)NCCC(=O)O)cc1 | inactive |
| COc1cc(OC)c2c(=O)c(OC)c(-c3ccc4c(c3)OCO4)oc2c1 | inactive |
